molecular target: ROMK (Kir1.1) channel (Homo sapiens); assay: Thallium Flux Assay; type: cell-based
metric.name: pIC50
One number for each entry, as −log10 of the molar value.

Some solved entries appear below for comparison.
> print(dat)
                                   molecule  value.reported
1  CC1=C(N2CCC3(CCN(C[C@H](O)c4cncc(-n5cnnn5)n4)CC3)CC2)COC1=O            6.96
2  CC1=C(N2CCC3(CCN(C[C@H](O)c4cccc(-n5cnnn5)n4)CC3)CC2)COC1=O            7.66
3  CC1=C(N2CCC3(CCN(C[C@H](O)c4ccc(-n5cnnn5)nc4)CC3)CC2)COC1=O            7.89
4  Cc1c([C@@H](O)CN2CCC3(CC2)CCN(C2=C(c4ccncc4)C(=O)OC2)CC3)ccc2c1COC2=O            6.45
5  Cc1c([C@@H](O)CN2CCC3(CC2)CCN(C2=CC(=O)OC2)C(C)C3)ccc2c1COC2=O (single isomer, unassigned) [Example 33]            7.38

For each listed entry, give its pIC50.
1. CC1=C(N2CCC3(CCN(C[C@H](O)c4ccc(-n5cnnn5)cc4C)CC3)CC2)CCC1=O
2. Cc1c([C@@H](O)CN2CCC3(CC2)CCN(C2=CC(=O)OC2)C(C)C3)ccc2c1COC2=O (single isomer, unassigned) [Example 32]
3. Cc1c(N2CCC3(CCN(C[C@@H](O)c4ccc5c(ccc6nnnn65)c4)CC3)CC2)c(=O)c1=O
4. Cc1c(N2CCC3(CCN(C[C@H](O)c4ccc(-n5cnnn5)nn4)CC3)CC2)c(=O)c1=O
5. Cc1c([C@H](O)CN2CCC3(CC2)CCN(C2=CC(=O)OC2)CC3)ccc2c1COC2=O
6. Cc1c([C@@H](O)CN2CCC3(CC2)CCN(C2=C(Cl)C(=O)OC2)CC3)ccc2c1COC2=O

### Response
1. 6.85
2. 7.31
3. 6.59
4. 6.50
5. 7.20
6. 8.30

* * *

Molecular target: ROMK (Kir1.1) channel (Homo sapiens)
Sequence (P48048 1-391): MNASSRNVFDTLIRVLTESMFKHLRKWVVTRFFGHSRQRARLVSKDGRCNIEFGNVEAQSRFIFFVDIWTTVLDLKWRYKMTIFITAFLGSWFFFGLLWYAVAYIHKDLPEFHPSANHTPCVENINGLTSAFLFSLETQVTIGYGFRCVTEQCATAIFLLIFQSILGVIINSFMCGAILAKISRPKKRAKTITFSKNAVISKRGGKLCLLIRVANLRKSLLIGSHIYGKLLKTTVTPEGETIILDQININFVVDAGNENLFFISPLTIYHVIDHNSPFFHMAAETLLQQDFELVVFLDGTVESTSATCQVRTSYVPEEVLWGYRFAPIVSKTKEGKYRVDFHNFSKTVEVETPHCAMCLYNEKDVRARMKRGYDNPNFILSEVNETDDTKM
Test: Thallium Flux Assay
Procedure: A Thallium Flux Assay was performed on each of the final product compounds in the Examples. When the final product of an Example was an HCl salt, the salt was run in the Assay. This assay has been described previously; see, e.g., PCT Published Application WO 2013/062900.
Task for the reader: assign each of the following molecules its reported IC50.
Numbers only, in nM.

Some solved entries appear below for comparison.
> print(dat)
                                   molecule                           test.target  metric.name  value.reported
1  Cc1c(CCN2CCC3(CC2)CCN(c2c(C)c(=O)c2=O)CC3)ccc2c1COC2=O  ROMK (Kir1.1) channel (Homo sapiens)         IC50              93
2  CC1=C(N2CCC3(CCN(C[C@H](O)c4ccc(-n5cnnn5)nc4C)CC3)CC2)COC1=O  ROMK (Kir1.1) channel (Homo sapiens)         IC50              16
3  Cc1c([C@@H](O)CN2CCC3(CC2)CCN(C2=C(c4ccccc4)C(=O)OC2)CC3)ccc2c1COC2=O  ROMK (Kir1.1) channel (Homo sapiens)         IC50             168

For each listed entry, give its IC50.
1. CC1=C(N2CCC3(CCN(C[C@H](O)c4ccc5c(c4C)COC5=O)CC3)CC2)COC1=O
2. CC1=C(N2CCC3(CCN(C[C@H](O)c4cc(-n5cnnn5)ccn4)CC3)CC2)COC1=O
3. Cc1c([C@@H](O)CN2CCC3(CC2)CCN(C2=C(C4CC4)C(=O)OC2)CC3)ccc2c1COC2=O

### Response
1. 13
2. 305
3. 17

For each listed entry, give its IC50.
1. CC1=C(N2CCC3(CCN(C[C@H](O)c4ccc(-n5cnnn5)cc4)CC3)CC2)COC1=O
2. CC1=C(N2CCC3(CCN(C[C@@H](O)c4cc(-n5cnnn5)ccn4)CC3)CC2)COC1=O
3. C[C@@H]1Cc2cc(C(O)CN3CCC4(CC3)CCN(C3=CC(=O)OC3)CC4)ccc2C(=O)O1 (stereo partly drawn)

### Response
[16, 185, 596]
